target: c-Met protein in S114 cells (Homo sapiens (Human), UniProt P08581); assay: S114 cell-based ELISA, phosphorylation of c-Met protein; settings: 30 min compound incubation, phospho-c-Met ELISA
Sequence (P08581 25-1390): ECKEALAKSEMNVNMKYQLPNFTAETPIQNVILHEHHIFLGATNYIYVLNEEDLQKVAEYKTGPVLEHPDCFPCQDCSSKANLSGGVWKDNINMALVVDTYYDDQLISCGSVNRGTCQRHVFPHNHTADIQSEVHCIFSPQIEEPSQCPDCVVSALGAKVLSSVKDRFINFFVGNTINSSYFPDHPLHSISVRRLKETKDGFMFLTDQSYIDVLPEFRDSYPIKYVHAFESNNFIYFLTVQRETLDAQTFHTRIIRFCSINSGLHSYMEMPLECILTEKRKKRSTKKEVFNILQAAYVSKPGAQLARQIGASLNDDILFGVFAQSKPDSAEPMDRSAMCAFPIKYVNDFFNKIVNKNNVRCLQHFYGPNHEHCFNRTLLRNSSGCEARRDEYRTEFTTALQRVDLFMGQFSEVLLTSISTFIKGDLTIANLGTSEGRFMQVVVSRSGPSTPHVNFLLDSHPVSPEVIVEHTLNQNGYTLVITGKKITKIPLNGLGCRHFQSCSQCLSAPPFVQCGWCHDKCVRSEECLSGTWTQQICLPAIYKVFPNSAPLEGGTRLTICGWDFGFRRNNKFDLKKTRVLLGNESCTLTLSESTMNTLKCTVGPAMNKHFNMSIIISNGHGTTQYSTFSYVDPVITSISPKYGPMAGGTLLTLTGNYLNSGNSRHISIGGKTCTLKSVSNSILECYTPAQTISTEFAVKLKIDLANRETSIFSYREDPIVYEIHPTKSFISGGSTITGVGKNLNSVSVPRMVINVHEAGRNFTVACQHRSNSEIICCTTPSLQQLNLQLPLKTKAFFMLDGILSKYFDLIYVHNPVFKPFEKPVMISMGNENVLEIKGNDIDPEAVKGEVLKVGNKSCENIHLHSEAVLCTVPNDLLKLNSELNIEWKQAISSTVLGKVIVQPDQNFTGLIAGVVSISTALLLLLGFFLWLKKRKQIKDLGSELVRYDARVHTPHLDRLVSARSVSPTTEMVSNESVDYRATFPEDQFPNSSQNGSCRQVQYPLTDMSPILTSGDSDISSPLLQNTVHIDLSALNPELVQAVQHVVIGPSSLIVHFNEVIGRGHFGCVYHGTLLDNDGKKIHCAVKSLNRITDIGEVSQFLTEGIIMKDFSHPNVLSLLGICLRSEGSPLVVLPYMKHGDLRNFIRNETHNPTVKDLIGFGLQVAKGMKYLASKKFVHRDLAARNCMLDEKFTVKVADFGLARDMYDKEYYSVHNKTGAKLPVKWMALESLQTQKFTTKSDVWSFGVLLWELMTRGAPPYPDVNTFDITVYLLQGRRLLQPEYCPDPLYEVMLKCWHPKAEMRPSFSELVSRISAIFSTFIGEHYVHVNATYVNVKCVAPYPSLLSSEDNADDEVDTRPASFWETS
Readout name: IC50

1. CC(C)n1cc(-c2ccc3nnc(C(F)(F)c4ccc5nn(C)cc5c4F)n3n2)cn1: 22.5 nM
2. CNC(=O)c1ccc(-c2ccc3nnc(C(F)(F)c4cc5cn(C)nc5cc4F)n3n2)c(F)c1: 206 nM
3. Cn1cc2cc(C(F)(F)c3nnc4ccc(-c5ccc(C(=O)NC6CC6)c(F)c5)nn34)c(F)cc2n1: 14.9 nM

Here's the next entry for you.
Provide IC50, tested on c-Met protein in S114 cells (Homo sapiens (Human), UniProt P08581), for `Cn1cc2c(F)c(C(F)(F)c3nnc4ccc(-c5ccc(NC(=O)C6CC6)c(F)c5)nn34)ccc2n1` .
49.6 nM

---

Dear all, this message contains pIC50 results, target or system c-Met kinase (1038-1346AA) (Homo sapiens (Human), UniProt P08581).
Numbers only, as −log10 of the molar value.

Check out these entries, answers already filled in.
1) CNC(=O)c1ccc(-c2ccc3nnc(C(F)(F)c4cc5cn(C)nc5cc4F)n3n2)c(F)c1: 7.04
2) Cn1cc2cc(C(F)(F)c3nnc4ccc(-c5cnn(CC6COCO6)c5)nn34)c(F)cc2n1 (stereo not shown): 6.90
3) COCCn1cc(-c2ccc3nnc(C(F)(F)c4ccc5nn(C)cc5c4F)n3n2)cn1: 6.42

Here's the next entry for you.
// Input: `COCCn1cc(-c2ccc3nnc(C(F)(F)c4cc5cn(C)nc5cc4F)n3n2)cn1` . Output its pIC50 only.
6.69

---

Dear all, this message contains IC50 results, target or system c-Met kinase (1038-1346AA) (Homo sapiens (Human), UniProt P08581).

Check out these entries, answers already filled in.
1) CC(C)NC(=O)c1ccc(-c2ccc3nnc(C(F)(F)c4cc5cn(C)nc5cc4F)n3n2)c(F)c1 [Example 20]: 137 nM
2) Cn1cc2c(F)c(C(F)(F)c3nnc4ccc(-c5ccc(S(N)(=O)=O)c(F)c5)nn34)ccc2n1 [Example 17]: 77.6 nM
3) CN(C)C(=O)c1ccc(-c2ccc3nnc(C(F)(F)c4cc5cn(C)nc5cc4F)n3n2)cc1F [Example 21]: 180 nM

Report IC50 for each item below.
1. Cn1cc2cc(C(F)(F)c3nnc4ccc(-c5cc(F)c6c(c5)CNC6=O)nn34)c(F)cc2n1 [Example 43]
2. Cc1cncc(-c2ccc3nnc(C(F)(F)c4cc5cn(C)nc5cc4F)n3n2)c1 [Example 32]
3. CNC(=O)c1ccc(-c2ccc3nnc(C(F)(F)c4ccc5nn(C)cc5c4F)n3n2)cc1F [Example 1]
4. CC(C)NC(=O)c1ccc(-c2ccc3nnc(C(F)(F)c4cc5cn(C)nc5cc4F)n3n2)cc1F [Example 23]
5. Cn1cc2c(F)c(C(F)(F)c3nnc4ccc(-c5ccc(C(=O)NC6CC6)c(F)c5)nn34)ccc2n1 [Example 5]

1. 23.3 nM
2. 109 nM
3. 48.8 nM
4. 41.6 nM
5. 45.4 nM

---

molecular target: c-Met protein in S114 cells (Homo sapiens (Human), UniProt P08581); assay: S114 cell-based ELISA, phosphorylation of c-Met protein; settings: 30 min compound incubation, phospho-c-Met ELISA
Readout name: pIC50
One number for each entry, as −log10 of the molar value.

1. Cn1cc2c(F)c(C(F)(F)c3nnc4ccc(-c5ccc(C#N)nc5)nn34)ccc2n1: 6.72

Report pIC50 for each item below.
1. Cn1cc2cc(C(F)(F)c3nnc4ncc(-c5cnn(C6CC6)c5)cn34)c(F)cc2n1
2. Cn1cc2c(F)c(C(F)(F)c3nnc4ccc(-c5ccc(S(N)(=O)=O)c(F)c5)nn34)ccc2n1

1. 7.66
2. 7.25

Report pIC50 for each item below.
1. Nc1nc2cc(F)c(Cc3nnc4ccc(-c5cnn(C6CC6)c5)nn34)cc2s1
2. CCNC(=O)c1ccc(-c2ccc3nnc(C(F)(F)c4cc5cn(C)nc5cc4F)n3n2)cc1F
3. Cn1cc2c(F)c(C(F)(F)c3nnc4ccc(-c5cncc(F)c5)nn34)ccc2n1
4. CNC(=O)c1ccc(-c2ccc3nnc(C(F)(F)c4ccc5nn(C)cc5c4F)n3n2)cc1F
5. CN(C)C(=O)c1ccc(-c2ccc3nnc(C(F)(F)c4ccc5nn(C)cc5c4F)n3n2)cc1F
6. Cn1cc2cc(C(F)(F)c3nnc4ccc(-c5cnn(C6CCOC6)c5)nn34)c(F)cc2n1 (centres unmarked)

1. 7.19
2. 7.81
3. 6.85
4. 8.41
5. 6.99
6. 6.69

Report pIC50 for each item below.
1. Cn1cc2cc(C(F)(F)C3(Cl)NN=C4C=CC(c5cnn(C6CC6)c5)=CN43)c(F)cc2n1 (centres unmarked)
2. CNC(=O)c1ccc(-c2ccc3nnc(C(F)(F)c4ccc5nn(C)cc5c4F)n3n2)cn1

6.57
6.91

Report pIC50 for each item below.
1. Cn1cc2cc(C(F)(F)c3nnc4ccc(-c5cnn(C6CC6)c5)nn34)c(F)cc2n1
2. Cn1cc(-c2ccc3nnc(C(F)(F)c4cc5cn(C)nc5cc4F)n3n2)cn1

1. 8.11
2. 7.86

Report pIC50 for each item below.
1. CC(C)n1cc(-c2ccc3nnc(C(F)(F)c4cc5cn(C)nc5cc4F)n3n2)cn1
2. CN(C)C(=O)c1ccc(-c2ccc3nnc(C(F)(F)c4cc5cn(C)nc5cc4F)n3n2)cc1F
3. CCNC(=O)c1ccc(-c2ccc3nnc(C(F)(F)c4ccc5nn(C)cc5c4F)n3n2)cc1F

1: 7.36; 2: 6.58; 3: 7.15

Report pIC50 for each item below.
1. CNC(=O)c1ccc(-c2ccc3nnc(C(F)(F)c4cc5cn(C)nc5cc4F)n3n2)cn1
2. Cc1cc(-c2ccc3nnc(C(F)(F)c4cc5cn(C)nc5cc4F)n3n2)ccn1
3. Cn1cc2c(F)c(C(F)(F)c3nnc4ccc(-c5cnn(CC6COCO6)c5)nn34)ccc2n1 (centres unmarked)

1. 7.22
2. 7.47
3. 6.75

Report pIC50 for each item below.
1. Cn1cc2cc(C(F)(F)c3nnc4ccc(-c5ccc(C(=O)N6CCCC6)c(F)c5)nn34)c(F)cc2n1
2. Cn1cc2c(F)c(C(F)(F)c3nnc4ccc(-c5cncc(Cl)c5)nn34)ccc2n1
3. Cc1cncc(-c2ccc3nnc(C(F)(F)c4ccc5nn(C)cc5c4F)n3n2)c1
4. Cn1cc2cc(C(F)(F)c3nnc4ccc(-c5ccc(C#N)nc5)nn34)c(F)cc2n1

1. 7.28
2. 7.38
3. 7.07
4. 7.06

Report pIC50 for each item below.
1. Cn1cc2cc(C(F)(F)c3nnc4ccc(-c5ccc(C(=O)N6CCOCC6)c(F)c5)nn34)c(F)cc2n1
2. CC(C)NC(=O)c1ccc(-c2ccc3nnc(C(F)(F)c4cc5cn(C)nc5cc4F)n3n2)c(F)c1
3. CN1CCN(C(=O)c2ccc(-c3ccc4nnc(C(F)(F)c5cc6cn(C)nc6cc5F)n4n3)cc2F)CC1

[6.52, 6.80, 6.49]

This collection of values is drawn from patent US9695175B2.
